Target or system Peptidyl-prolyl cis-trans isomerase FKBP1A (Homo sapiens, UniProt P62942): recorded IC50 listed per item.
Show the value, then the unit it is measured in.

Incoming: Fill in the recorded IC50 for this compound, with Peptidyl-prolyl cis-trans isomerase FKBP1A (Homo sapiens, UniProt P62942) as test system: COc1ccc(OCCOC(=O)[C@@H]2CCCCN2C(=O)C(=O)[C@]2(O)CCCC[C@H]2C)cc1OC (mixture of isomers)
Sequence (P62942 whole entry): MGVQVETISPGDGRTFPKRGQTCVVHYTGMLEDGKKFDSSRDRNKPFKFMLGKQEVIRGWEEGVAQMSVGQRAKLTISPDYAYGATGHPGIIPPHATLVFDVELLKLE
Outgoing: 310 nM

Incoming: API: value(readout= IC50, system= Peptidyl-prolyl cis-trans isomerase FKBP1A (Homo sapiens, UniProt P62942), query= "CCC(C)(C)C(=O)C(=O)N1CCCC[C@H]1C(=O)O[C@H](CCc1ccc(OC)c(OC)c1)c1cccc(OCC(=O)O)c1" )
Outgoing: 170 nM

----------
# TARGET_DESC: Peptidyl-prolyl cis-trans isomerase FKBP4 (Homo sapiens)
# Sequence (Q02790 whole entry): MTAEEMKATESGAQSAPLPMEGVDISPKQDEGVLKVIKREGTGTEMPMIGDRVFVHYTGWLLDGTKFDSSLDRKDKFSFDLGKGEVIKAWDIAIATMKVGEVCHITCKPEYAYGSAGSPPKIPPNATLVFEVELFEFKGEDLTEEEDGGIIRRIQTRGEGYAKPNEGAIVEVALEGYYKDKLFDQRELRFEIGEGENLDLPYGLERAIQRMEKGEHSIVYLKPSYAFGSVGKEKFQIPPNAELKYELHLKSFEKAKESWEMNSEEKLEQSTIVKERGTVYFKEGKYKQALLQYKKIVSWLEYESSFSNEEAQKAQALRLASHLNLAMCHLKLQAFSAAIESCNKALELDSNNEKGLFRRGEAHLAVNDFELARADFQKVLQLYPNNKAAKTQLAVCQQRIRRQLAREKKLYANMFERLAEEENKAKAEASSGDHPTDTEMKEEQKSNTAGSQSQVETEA
Below: a set of entries, each annotated with reported pIC50.
Remember the convention: pIC50 equals -log10 of concentration in molar.

COc1ccc(OCCOC(=O)[C@@H]2CCCCN2C(=O)C(=O)[C@]2(O)CCCC[C@H]2C)cc1OC (mixture of isomers): 4.93

Then this compound:
Incoming: Checklist item: pIC50 tested on Peptidyl-prolyl cis-trans isomerase FKBP4 (Homo sapiens), entry "CCC(C)(C)C(=O)C(=O)N1CCCC[C@H]1C(=O)O[C@H](CCc1ccc(OC)c(OC)c1)c1cccc(OCC(=O)O)c1" , value?
Outgoing: 4.98

----------
// IC50 lookup, one value per entry
# TARGET_DESC: Peptidyl-prolyl cis-trans isomerase FKBP1A (Homo sapiens)

These solved cases illustrate the format of a correct answer.
CC[C@@H]1CCCC[C@@]1(O)C(=O)C(=O)N1CCCC[C@H]1C(=O)OCCOc1ccc(OC)c(OC)c1 (mixture of isomers): 2780 nM
CC[C@@H]1CCCC[C@@]1(O)C(=O)C(=O)N1CCCC[C@H]1C(=O)O[C@H](CCc1ccc(OC)c(OC)c1)c1cccc(OCCN2CCOCC2)c1 (mixture of isomers): 470 nM
CCC(C)(C)C(=O)C(=O)N1CCCC[C@H]1C(=O)NC(CCc1ccc(OC)c(OC)c1)c1cccc(OCC(=O)O)c1 (mixture of isomers): 3380 nM

Attention now shifts to the item below.
Incoming: Entry "COc1ccc(CC[C@@H](OC(=O)[C@@H]2CCCCN2C(=O)C(=O)c2cc(OC)c(OC)c(OC)c2)c2cccc(OCC(=O)O)c2)cc1OC" , system Peptidyl-prolyl cis-trans isomerase FKBP1A (Homo sapiens): what IC50 was measured?
Outgoing: 150 nM

Just for reference, ChEMBL document CHEMBL2057129 is where these values come from.
